Assay: HepG2 cytotoxicity (CellTiter-Glo, 72 h)
Assay type: cell-based, human
Conditions: human, HepG2 cytotoxicity IC50 Glucose
Procedure: Cytotoxicity against HepG2 cells was measured after 72 h. Cells were seeded in 384-well plates at 1,800 cells per well. Compounds were added as a 10-point three-fold serial dilution after 24 h (final assay concentration of 1% DMSO). CellTiter-Glo® reagent (Promega) was added and relative luminescence units (RLU) measured. Data were normalized to the DMSO controls. […] We further evaluated cytotoxicity using the HepG2 cell line cultured with either glucose or galactose in the medium (Table 2). […]
metric: IC50 at 72 h (µM)
One number for each entry, in µM.

Take a look at these entries with their results.
>>> readout_number("COCc1cc(C)nc2sc(C(=O)c3ccccc3)c(N)c12 [TPN-0073023]")
68
>>> readout_number("OCc1cn(-c2ccc(Cl)cc2)nc1-c1ccc(Cl)cc1 [TPN-0073562]")
31
>>> readout_number("O=C(Nc1ccc(Cl)c(Cl)c1)c1cccs1 [TPN-0073578]")
3.9
>>> readout_number("O=C(CSc1ccc(Cl)cc1)Nc1ccc(F)c(Cl)c1 [TPN-0006216]")
44
>>> readout_number("OCc1cn(-c2ccc(F)cc2)nc1-c1cc(F)c(Cl)cc1Cl [TPN-0073565]")
46
>>> readout_number("CCN(CC)C(=O)c1sc2nc(-c3ccccc3)ccc2c1N [TPN-0073025]")
61

For the 3 compounds below, give their IC50 at 72 h values.
1. O=C(COc1ccc(Br)cc1)N1CCN(c2ccccc2F)CC1 [TPN-0006215]
2. CCOc1ccc(NC(=S)Nc2ccc(C)c(C#N)c2)cc1 [TPN-0073063]
3. CCCOc1ccc(C(=O)Nc2sc(C)c(C)c2C(N)=O)cc1 [TPN-0073576]

## Output
1. 96
2. 64
3. 83

For each of the compounds below, state IC50 at 72 h.
1. CCc1ccc(OCC(=O)Nc2cccc3c2C(=O)OC3)cc1 [TPN-0006204]
2. OCc1cn(-c2ccc(F)cc2)nc1-c1ccc(Cl)cc1 [TPN-0073583]
3. O=C(Nc1ccc(C(F)(F)F)cc1)Nc1cccc(Cl)c1 [TPN-0073070]
4. Cc1sc(NC(=O)c2ccc(OC(C)C)cc2)c(C(N)=O)c1C [TPN-0073559]
5. Cc1cc(OCC(=O)N2CCC(C)CC2)ccc1Br [TPN-0006213]
6. OCc1cn(-c2ccccc2)nc1-c1ccc(Br)cc1 [TPN-0073563]

## Output
59
66
5.6
49
93
34

###

Test system: RAW264.7 cells
Assay: Macrophage viability in the same high content assay
Conditions: infected RAW264.7 macrophages; SAR tables 4-8
Marks after values point to notes of the source that are not given here.
Please go through the items and note down their Intracellular RAW TC50.

Batch lookup, Intracellular RAW TC50 per entry.
1. O=C(CSc1ccccc1)Nc1ccc(Br)cc1 [TPN-0006205]
2. Cc1cc(OCC(=O)N2CCC(C)CC2)ccc1Br [TPN-0006213]

## Output
1. 57 ± 24 ^c µM
2. 75 ± 16 ^b µM

For every item below, please supply its Intracellular RAW TC50.
1. O=C(COc1ccc(Cl)cc1)Nc1ccc(N2CCCCC2)c(Cl)c1 [TPN-0006209]
2. CCc1ccc(OCC(=O)Nc2cccc3c2C(=O)OC3)cc1 [TPN-0006204]
3. CCOc1ccc(NC(=S)Nc2ccc(C)c(C#N)c2)cc1 [TPN-0073063]

## Output
1. 68 ± 0.5 ^b µM
2. >100 ^a µM
3. 47 ± 28 ^g µM

###

Tested on: HepG2 cells
Assay: HepG2 cytotoxicity (CellTiter-Glo, 72 h)
Assay type: cell-based, human
Conditions: human, 72 h
Marks after values point to notes of the source that are not given here.
metric: HepG2 cytotoxicity TC50 Galactose

Lab note: each molecule below needs its HepG2 cytotoxicity TC50 Galactose filled in.
1. CCCOc1ccc(C(=O)Nc2sc(C)c(C)c2C(N)=O)cc1
2. OCc1cn(-c2ccc(F)cc2)nc1-c1cc(F)c(Cl)cc1Cl
3. Clc1c(-c2ccccc2)nc2ccccn12
4. COc1ccc(OCC(=O)Nc2sc3c(c2C(=O)NC2CCS(=O)(=O)C2)CCCC3)cc1 (stereo not drawn)
5. COc1ccc(CNC(=O)c2c(C)nc3ccccn23)cc1

## Output
1: 92 ± 7 ^c µM; 2: 43 ± 2.1 ^d µM; 3: >100 ^b µM; 4: >100 ^c µM; 5: 22 ± 2.2 ^c µM

For each of the items listed, what is its HepG2 cytotoxicity TC50 Galactose?
1. Fc1ccc(C2CC(c3ccc(Cl)cc3Cl)n3ncnc3N2)cc1 (stereo not drawn)
2. Clc1ccc(C2C=C(c3ccc(Br)cc3)Nc3ncnn32)cc1 (stereo not drawn)

## Output
1: 30 ± 3.2 ^d µM; 2: 18 ± 5 ^b µM

Could I get HepG2 cytotoxicity TC50 Galactose for every one of these entries?
1. Cc1ccc(OCC(=O)Nc2ccc(N3CCCCC3)c(Cl)c2)cc1
2. COc1ccc(C2Oc3ccc(Cl)cc3C3=C2C(c2ccc(OC)cc2)n2ncnc2N3)cc1 (stereo not drawn)

## Output
1. >100 ^b µM
2. >50 ^b µM

###

Tested on: RAW264.7 cells
Test: Macrophage viability in the same high content assay
Conditions: infected RAW264.7 macrophages, 72 h
Marks after values point to notes of the source that are not given here.
I'd appreciate it if you could supply Intracellular activity Cytotoxicity TC50 values for the items below.

Below, each entry is followed by its recorded Intracellular activity Cytotoxicity TC50 result.
>>> result("O=C(Nc1ccc(Cl)c(Cl)c1)c1cccs1")
"11 ± 2.2 ^d µM"
>>> result("COc1ccc(OCC(=O)Nc2sc3c(c2C(=O)NC2CCS(=O)(=O)C2)CCCC3)cc1 (stereo not drawn)")
">100 ^b µM"

Need Intracellular activity Cytotoxicity TC50 for each of these molecules.
1. CCOc1ccc(NC(=S)Nc2ccccc2)cc1
2. O=C(COc1ccccc1)NC12CC3CC(CC(C3)C1)C2
3. Clc1ccc(C2C=C(c3ccc(Br)cc3)Nc3ncnn32)cc1 (stereo not drawn)

## Output
>100 ^d µM
38 ± 6.0 ^b µM
19 ± 12 ^b µM

Hi there! I need Intracellular activity Cytotoxicity TC50 for each item below, if you can.
1. CCOc1ccc(NC(=S)Nc2ccc(C)c(C#N)c2)cc1
2. O=C(c1c(F)cccc1F)N1CCN(c2cc(N3CCCCCC3)c(F)cc2[N+](=O)[O-])CC1
3. O=C(COc1ccc(Cl)cc1)Nc1ccc(N2CCCCC2)c(Cl)c1
4. COc1ccc(OCCNC(=O)c2cc([N+](=O)[O-])cc([N+](=O)[O-])c2)cc1

## Output
1. 47 ± 28 ^f µM
2. >50 ^c µM
3. 68 ± 0.50 ^b µM
4. 40 ± 25 ^e µM

###

Tested on: HepG2 cells
Experiment: HepG2 cytotoxicity (CellTiter-Glo, 72 h)
Assay type: cell-based, human
Settings: human, 72 h
Marks after values point to notes of the source that are not given here.
I'd appreciate it if you could supply HepG2 cytotoxicity TC50 Glucose values for the items below.

Here's what some known entries look like.
>>> result("Brc1c(-c2ccccc2)nc2ccccn12")
">100 ^b µM"
>>> result("COC(=O)c1c(NC(NC(=O)c2cccs2)C(=O)c2ccccc2)sc(C(C)=O)c1C (stereo not shown)")
">100 ^b µM"
>>> result("O=C(COc1ccc(Cl)cc1)Nc1ccc(N2CCCCC2)c(Cl)c1")
">100 ^b µM"
>>> result("O=C(Nc1ccc(Cl)c(Cl)c1)c1cccs1")
"3.9 ± 1.1 ^c µM"
>>> result("Cc1sc(NC(=O)c2ccc(OC(C)C)cc2)c(C(N)=O)c1C")
"49 ± 8.5 ^c µM"

Give me HepG2 cytotoxicity TC50 Glucose for each of these molecules, listed below.
1. Cc1ccc(Nc2nc(-c3ccc(Cl)cc3)cs2)cc1Cl
2. O=C(CSc1ccc(Cl)cc1)Nc1ccc(F)c(Cl)c1
3. O=C(CSc1ccccc1)Nc1ccc(Br)cc1
4. O=C(CN1CCC(Cc2ccccc2)CC1)Nc1ccc(Cl)cn1
5. COc1ccc(OCC(=O)Nc2sc3c(c2C(=O)NC2CCS(=O)(=O)C2)CCCC3)cc1 (stereo not shown)

## Output
23 ± 1.5 ^b µM
44 ± 2 ^b µM
>100 ^e µM
26 ± 3.0 ^b µM
>100 ^c µM

###

Experiment: HepG2 cytotoxicity (CellTiter-Glo, 72 h)
Format: cell-based, human
Details: human, HepG2 cytotoxicity IC50 Galactose
I'd appreciate it if you could supply IC50 at 72 h values for the items below.
Answers are plain numbers, in µM.

>>> readout_number("O=C(CSc1ccc(Cl)cc1)Nc1ccc(F)c(Cl)c1 [TPN-0006216]")
33

Batch request: IC50 at 72 h per item, same order as input.
1. O=C(COc1ccc(Br)cc1)N1CCN(c2ccccc2F)CC1 [TPN-0006215]
2. COCc1cc(C)nc2sc(C(=O)c3ccccc3)c(N)c12 [TPN-0073023]

## Output
[57, 49]

The reported numbers originate from paper PMC8762250.
